- Test system: Streptococcus pneumoniae Park I
- assay.setup: 30 mcg./disc; second test, Table 13
Bridge positions count the residues as written; N and C are the ends. Square brackets hold non-standard residues; d marks the D form. Peptide text beside a SMILES is read from it. * marks the point of attachment. ξ: configuration not given here. Octatrienoyl(2E,4E,6E) = C/C=C/C=C/C=C/C(=O)*; Hexadienoyl(2E,4E) = C/C=C/C=C/C(=O)*; ξPro(4ξ-Me) = CC1CNC(C(=O)O)C1; X2 = CCC/C=C/C=C/C(=O)*; NMeA = CN[CH](C)C(=O)O; X1 = O=C(/C=C/C=C/CO)*
property.name: Zone diameter (mm.)
Give the value, in units of mm., as a plain number.

The following molecules have reported results that may help.
C/C=C/C=C/C(=O)NC(Cc1ccccc1)C(=O)NC1COC(=O)C2CCCN2C(=O)C(C)NC(=O)C(C)N(C)C(=O)C2CCCN2C1=O (stereo not shown) [Factor E] ({Hexadienoyl(2E,4E)}-FSP[NMeA]AP; ester 2-C; configuration not given here)	25
CC1CC2C(=O)N(C)C(C)C(=O)NC(C)C(=O)N3CCCC3C(=O)OCC(NC(=O)C(Cc3ccccc3)NC(=O)/C=C/C=C/CO)C(=O)N2C1 (stereo not shown) [Factor H] (X1-FS[ξPro(4ξ-Me)][NMeA]AP; ester 2-C; configuration not given here)	25
CCC/C=C/C=C/C(=O)NC(Cc1ccccc1)C(=O)NC1COC(=O)C2CCCN2C(=O)C(C)NC(=O)C(C)N(C)C(=O)C2CC(C)CN2C1=O (stereo not shown) [Factor D] (X2-FS[ξPro(4ξ-Me)][NMeA]AP; ester 2-C; configuration not given here)	30

API: the following record is the query input.
**Q:** Entry C/C=C/C=C/C=C/C(=O)NC(Cc1ccccc1)C(=O)NC1COC(=O)C2CCCN2C(=O)C(C)NC(=O)C(C)N(C)C(=O)C2CCCN2C1=O (stereo not shown) [Factor B] ({Octatrienoyl(2E,4E,6E)}-FSP[NMeA]AP; ester 2-C; configuration not given here) , system Streptococcus pneumoniae Park I: what Zone diameter was measured?
**A:** 25
